Target: phosphatidylinositol 3-kinase gamma isoform (p110?), recombinant GST-p110? (Homo sapiens)
Construct: made in house; host or cells: Sf9 (Spodoptera frugiperda) insect cells, baculovirus
Sequence (P48736 38-1102): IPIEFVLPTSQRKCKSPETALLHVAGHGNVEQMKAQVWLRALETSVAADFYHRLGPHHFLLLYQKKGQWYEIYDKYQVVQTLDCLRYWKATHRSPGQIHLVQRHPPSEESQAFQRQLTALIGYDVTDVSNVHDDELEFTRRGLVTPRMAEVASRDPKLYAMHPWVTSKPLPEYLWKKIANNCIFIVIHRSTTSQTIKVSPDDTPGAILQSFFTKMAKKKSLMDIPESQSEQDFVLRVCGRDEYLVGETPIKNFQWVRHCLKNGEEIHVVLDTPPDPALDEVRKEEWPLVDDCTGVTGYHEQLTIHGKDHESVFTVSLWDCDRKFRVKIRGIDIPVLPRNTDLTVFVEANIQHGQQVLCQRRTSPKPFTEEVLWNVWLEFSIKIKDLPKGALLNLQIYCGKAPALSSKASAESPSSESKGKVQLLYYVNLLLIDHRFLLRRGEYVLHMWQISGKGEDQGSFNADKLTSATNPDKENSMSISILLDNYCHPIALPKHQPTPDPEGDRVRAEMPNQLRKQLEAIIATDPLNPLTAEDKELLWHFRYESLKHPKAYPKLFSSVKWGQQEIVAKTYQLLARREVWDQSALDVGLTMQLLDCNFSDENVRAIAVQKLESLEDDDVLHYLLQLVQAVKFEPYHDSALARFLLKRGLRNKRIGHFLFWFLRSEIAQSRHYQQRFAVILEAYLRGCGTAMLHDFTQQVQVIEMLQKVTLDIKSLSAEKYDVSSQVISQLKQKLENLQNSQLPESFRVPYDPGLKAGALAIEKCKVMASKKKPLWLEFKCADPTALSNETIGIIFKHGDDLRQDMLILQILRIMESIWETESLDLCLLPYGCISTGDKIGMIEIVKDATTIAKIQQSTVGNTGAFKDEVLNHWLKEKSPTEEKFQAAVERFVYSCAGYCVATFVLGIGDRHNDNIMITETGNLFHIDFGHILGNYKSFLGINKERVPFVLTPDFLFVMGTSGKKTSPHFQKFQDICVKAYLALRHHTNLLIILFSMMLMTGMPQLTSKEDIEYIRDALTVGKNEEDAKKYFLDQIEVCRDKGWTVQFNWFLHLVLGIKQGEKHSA
Test: PI3K gamma in vitro kinase assay (Scintillation Proximity Assay, phosphate transfer from ATP to phosphatidylinositol)
Assay type: biochemical
Conditions: gamma isoform; fluorinated Example compound
Entries and their measured IC50 follow.
recorded_endpoint: IC50 (µM)

line_notation	experimental_target	units_text	quantitative_readout
Cc1nc(NC(=O)NCCc2nnn(CCF)n2)sc1-c1ccc(S(C)(=O)=O)c(F)c1	phosphatidylinositol 3-kinase gamma isoform (p110?), recombinant GST-p110? (Homo sapiens)	µM	0.01
Cc1nc(NC(=O)NCCC(=O)NCC(F)F)sc1-c1ccc(S(C)(=O)=O)c(F)c1	phosphatidylinositol 3-kinase gamma isoform (p110?), recombinant GST-p110? (Homo sapiens)	µM	0.028
Cc1nc(NC(=O)NCCc2cn(CCF)cn2)sc1-c1ccc(S(C)(=O)=O)c(F)c1	phosphatidylinositol 3-kinase gamma isoform (p110?), recombinant GST-p110? (Homo sapiens)	µM	0.028
